Reference for the values: paper PMC7518156

# test: Pharmacokinetics of ERL and GEF in Wistar rats after four weeks consumption of water or flavoured water (plasma, UPLC-MS/MS, non-compartmental analysis)
# Format: in vivo
# assayContext: male, Wistar, rat, plasma, po, 20 mg/kg, rats, 20 mg/kg oral; four weeks lime FW; n = 5, mean (SD); read-out: t½ (converted)
propertyName: half-life
The reply should read as a number followed by its unit.

Qu. For the molecule COc1cc2ncnc(Nc3ccc(F)c(Cl)c3)c2cc1OCCCN1CCOCC1 [GEF, Gefitinib] , what half-life is on record?
Ans. 16.9 h

###

# test: Pharmacokinetics of ERL and GEF in Wistar rats after four weeks consumption of water or flavoured water (plasma, UPLC-MS/MS, non-compartmental analysis)
# Type: in vivo
# assayContext: male, Wistar, rat, plasma, po, 20 mg/kg, rats, 20 mg/kg oral; +Pineapple FW; average; time 5 h; read-out: Conc*10 (ng/mL plasma)
propertyName: concentration at 5 h
The reply should read as a number followed by its unit.

>>> resultvalue("C#Cc1cccc(Nc2ncnc3cc(OCCOC)c(OCCOC)cc23)c1")
"20.9 ng/mL"

Qu. For the compound "COc1cc2ncnc(Nc3ccc(F)c(Cl)c3)c2cc1OCCCN1CCOCC1" , what concentration at 5 h is on record?
Ans. 210 ng/mL

###

Listed below: concentration at 24 h values for each entry.
# test: Pharmacokinetics of ERL and GEF in Wistar rats after four weeks consumption of water or flavoured water (plasma, UPLC-MS/MS, non-compartmental analysis)
# Format: in vivo
# assayContext: male, Wistar, rat, plasma, po, 20 mg/kg, rats, 20 mg/kg oral; +Lime FW; average; time 24 h; read-out: Conc*10 (ng/mL plasma)
Could you give me the number in ng/mL? Just the number is fine.

>>> resultvalue("COc1cc2ncnc(Nc3ccc(F)c(Cl)c3)c2cc1OCCCN1CCOCC1 [GEF, Gefitinib]")
216

Alright, here's another molecule for you.
Qu. For the molecule C#Cc1cccc(Nc2ncnc3cc(OCCOC)c(OCCOC)cc23)c1 [ERL, Erlotinib] , what concentration at 24 h is on record?
Ans. 32.1

###

# test: Pharmacokinetics of ERL and GEF in Wistar rats after four weeks consumption of water or flavoured water (plasma, UPLC-MS/MS, non-compartmental analysis)
# Format: in vivo
# assayContext: male, Wistar, rat, plasma, po, 20 mg/kg, rats, 20 mg/kg oral; four weeks peach FW; n = 5, mean (SD); read-out: t½ (converted)
propertyName: half-life (h)
Could you give me the number in h? Just the number is fine.

Qu. For the compound "COc1cc2ncnc(Nc3ccc(F)c(Cl)c3)c2cc1OCCCN1CCOCC1" , what half-life is on record?
Ans. 15.4

###

# test: Pharmacokinetics of ERL and GEF in Wistar rats after four weeks consumption of water or flavoured water (plasma, UPLC-MS/MS, non-compartmental analysis)
# Assay type: in vivo
# assayContext: male, Wistar, rat, plasma, oral, 20 mg/kg, PKSolver sheet; dose 20 mg/kg; drug alone (water); time 3 h; read-out: Conc
# Method: Fifty healthy male Wistar rats weighing 250 ± 30 g were obtained from the animal house, College of Pharmacy, King Saud University, Riyadh, Saudi Arabia. Rats were randomly divided into ten cages (n = 5). […] Cmax and tmax were obtained from the corresponding plasma concentration–time curve (Figs. 1A and 1B). […] The area under the plasma concentration–time curve from time 0 to the last sampling time t, 48 h (AUC0–t) was calculated using the trapezoidal rule. […]
propertyName: concentration at 3 h (ng/mL)
Could you give me the number in ng/mL? Just the number is fine.

Qu. For the compound "C#Cc1cccc(Nc2ncnc3cc(OCCOC)c(OCCOC)cc23)c1" , what concentration at 3 h is on record?
Ans. 29.7

Qu. Also "COc1cc2ncnc(Nc3ccc(F)c(Cl)c3)c2cc1OCCCN1CCOCC1" ?
Ans. 169

###

# test: Pharmacokinetics of ERL and GEF in Wistar rats after four weeks consumption of water or flavoured water (plasma, UPLC-MS/MS, non-compartmental analysis)
# Format: in vivo
# assayContext: male, Wistar, rat, plasma, po, 20 mg/kg, rats, 20 mg/kg oral; +Peach FW; average; time 3 h; read-out: Conc*10 (ng/mL plasma)
propertyName: concentration at 3 h (ng/mL)
Could you give me the number in ng/mL? Just the number is fine.

>>> resultvalue("COc1cc2ncnc(Nc3ccc(F)c(Cl)c3)c2cc1OCCCN1CCOCC1 [GEF, Gefitinib]")
213

Alright, here's another molecule for you.
Qu. For the molecule C#Cc1cccc(Nc2ncnc3cc(OCCOC)c(OCCOC)cc23)c1 [ERL, Erlotinib] , what concentration at 3 h is on record?
Ans. 43.2

###

Listed below: AUC(0-t) values for each entry.
# test: Pharmacokinetics of ERL and GEF in Wistar rats after four weeks consumption of water or flavoured water (plasma, UPLC-MS/MS, non-compartmental analysis)
# Assay type: in vivo
# assayContext: male, Wistar, rat, plasma, po, 20 mg/kg, rats, 20 mg/kg oral; four weeks peach FW; n = 5, mean (SD); read-out: AUC0-48
Could you give me the number in ng·h/mL? Just the number is fine.

>>> resultvalue("COc1cc2ncnc(Nc3ccc(F)c(Cl)c3)c2cc1OCCCN1CCOCC1")
4740

Alright, here's another molecule for you.
Qu. For the molecule "C#Cc1cccc(Nc2ncnc3cc(OCCOC)c(OCCOC)cc23)c1" , what AUC(0-t) is on record?
Ans. 827

###

Listed below: concentration at 1 h values for each entry.
# test: Pharmacokinetics of ERL and GEF in Wistar rats after four weeks consumption of water or flavoured water (plasma, UPLC-MS/MS, non-compartmental analysis)
# Type: in vivo
# assayContext: male, Wistar, rat, plasma, oral, 20 mg/kg, PKSolver sheet; dose 20 mg/kg; +Peach; time 1 h; read-out: Conc
Could you give me the number in ng/mL? Just the number is fine.

>>> resultvalue("COc1cc2ncnc(Nc3ccc(F)c(Cl)c3)c2cc1OCCCN1CCOCC1 [GEF, Gefitinib]")
202

Alright, here's another molecule for you.
Qu. For the molecule C#Cc1cccc(Nc2ncnc3cc(OCCOC)c(OCCOC)cc23)c1 [ERL, Erlotinib] , what concentration at 1 h is on record?
Ans. 81.7

###

# test: Pharmacokinetics of ERL and GEF in Wistar rats after four weeks consumption of water or flavoured water (plasma, UPLC-MS/MS, non-compartmental analysis)
# Format: in vivo
# assayContext: male, Wistar, rat, plasma, po, 20 mg/kg, rats, 20 mg/kg oral; +Berry FW; average; time 2 h; read-out: Conc*10 (ng/mL plasma)
propertyName: concentration at 2 h (ng/mL)
Could you give me the number in ng/mL? Just the number is fine.

>>> resultvalue("C#Cc1cccc(Nc2ncnc3cc(OCCOC)c(OCCOC)cc23)c1")
92.4

Qu. For the compound "COc1cc2ncnc(Nc3ccc(F)c(Cl)c3)c2cc1OCCCN1CCOCC1" , what concentration at 2 h is on record?
Ans. 322

###

# test: Pharmacokinetics of ERL and GEF in Wistar rats after four weeks consumption of water or flavoured water (plasma, UPLC-MS/MS, non-compartmental analysis)
# Type: in vivo
# assayContext: male, Wistar, rat, plasma, po, 20 mg/kg, rats, 20 mg/kg oral; drug alone (water); average; time 2 h; read-out: Conc*10 (ng/mL plasma)
propertyName: concentration at 2 h (ng/mL)
Could you give me the number in ng/mL? Just the number is fine.

>>> resultvalue("COc1cc2ncnc(Nc3ccc(F)c(Cl)c3)c2cc1OCCCN1CCOCC1")
402

Qu. For the compound "C#Cc1cccc(Nc2ncnc3cc(OCCOC)c(OCCOC)cc23)c1" , what concentration at 2 h is on record?
Ans. 48.2

###

Listed below: concentration at 48 h values for each entry.
# test: Pharmacokinetics of ERL and GEF in Wistar rats after four weeks consumption of water or flavoured water (plasma, UPLC-MS/MS, non-compartmental analysis)
# Assay type: in vivo
# assayContext: male, Wistar, rat, plasma, oral, 20 mg/kg, PKSolver sheet; dose 20 mg/kg; +Peach; time 48 h; read-out: Conc
Could you give me the number in ng/mL? Just the number is fine.

>>> resultvalue("C#Cc1cccc(Nc2ncnc3cc(OCCOC)c(OCCOC)cc23)c1 [ERL, Erlotinib]")
9.85

Alright, here's another molecule for you.
Qu. For the molecule COc1cc2ncnc(Nc3ccc(F)c(Cl)c3)c2cc1OCCCN1CCOCC1 [GEF, Gefitinib] , what concentration at 48 h is on record?
Ans. 25.2

###

# test: Pharmacokinetics of ERL and GEF in Wistar rats after four weeks consumption of water or flavoured water (plasma, UPLC-MS/MS, non-compartmental analysis)
# Type: in vivo
# assayContext: male, Wistar, rat, plasma, po, 20 mg/kg, raw data sheet, from average profile; +Lime FW; read-out: tmax
# Description: Fifty healthy male Wistar rats weighing 250 ± 30 g were obtained from the animal house, College of Pharmacy, King Saud University, Riyadh, Saudi Arabia. Rats were randomly divided into ten cages (n = 5). […] Cmax and tmax were obtained from the corresponding plasma concentration–time curve (Figs. 1A and 1B). […] The area under the plasma concentration–time curve from time 0 to the last sampling time t, 48 h (AUC0–t) was calculated using the trapezoidal rule. […]
propertyName: Tmax (min)
Could you give me the number in min? Just the number is fine.

Qu. For the molecule C#Cc1cccc(Nc2ncnc3cc(OCCOC)c(OCCOC)cc23)c1 [ERL, Erlotinib] , what Tmax is on record?
Ans. 30
